Target: CREBBP (1084-1701) (Homo sapiens)
Construct: measured in the following biochemical assay using CREBBP (1084-1701); purchased
Sequence (Q92793 1084-1701): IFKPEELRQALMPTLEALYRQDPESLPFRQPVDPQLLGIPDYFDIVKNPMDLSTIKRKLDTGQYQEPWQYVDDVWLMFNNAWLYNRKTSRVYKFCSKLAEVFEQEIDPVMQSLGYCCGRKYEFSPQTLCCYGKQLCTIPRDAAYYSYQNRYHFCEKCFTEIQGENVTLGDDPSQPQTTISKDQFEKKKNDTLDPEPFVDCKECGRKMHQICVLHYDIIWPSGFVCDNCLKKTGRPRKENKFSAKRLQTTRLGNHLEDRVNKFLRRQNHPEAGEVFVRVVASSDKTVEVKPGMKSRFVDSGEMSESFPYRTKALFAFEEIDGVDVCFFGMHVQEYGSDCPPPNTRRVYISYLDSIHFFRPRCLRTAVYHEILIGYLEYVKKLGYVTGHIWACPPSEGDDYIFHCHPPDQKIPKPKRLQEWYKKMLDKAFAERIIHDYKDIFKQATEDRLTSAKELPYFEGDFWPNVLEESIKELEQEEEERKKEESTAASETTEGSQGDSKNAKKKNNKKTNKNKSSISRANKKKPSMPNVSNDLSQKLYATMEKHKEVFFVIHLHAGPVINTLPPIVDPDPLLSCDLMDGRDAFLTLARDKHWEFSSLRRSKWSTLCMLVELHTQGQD
Assay: Biochemical assay for CREBBP (1084-1701), SAMDI
Settings: SAMDI, read-out: CREBBP Biochemistry IC50
pIC50: −log10 of the molar value.
Use pIC50 to assign classes; range list: bottom range = under 5, center range = from 5 up to 7, top range = 7 and over

Consider the worked cases shown below.
{"COMPOUND": "CCn1ncc(CN(C)C(=O)c2nc(-c3ccc(OCCCO)c(C)c3)nc3ccc(Cl)cc23)c1C [Compound 66]", "TARGET OF ASSAY": "CREBBP (1084-1701) (Homo sapiens)", "CLASS ASSIGNMENT": "center range"}
{"COMPOUND": "CCn1ncc(CN(C)C(=O)c2nc(-c3cc(C(F)(F)F)c4[nH]nc(N)c4c3)nc3ccc(Cl)cc23)c1C [Compound 618]", "TARGET OF ASSAY": "CREBBP (1084-1701) (Homo sapiens)", "CLASS ASSIGNMENT": "top range"}
{"COMPOUND": "CCn1ncc(CN(C)C(=O)c2nc(-c3cc(C#N)n(C)n3)nc3ccc(Cl)cc23)c1C [Compound 406]", "TARGET OF ASSAY": "CREBBP (1084-1701) (Homo sapiens)", "CLASS ASSIGNMENT": "bottom range"}
{"COMPOUND": "CCn1ncc(CN(C)C(=O)c2nc(-c3ccc(OCCCNC)c(C)c3C)nc3ccc(Cl)cc23)c1C [Compound 446]", "TARGET OF ASSAY": "CREBBP (1084-1701) (Homo sapiens)", "CLASS ASSIGNMENT": "top range"}
{"COMPOUND": "CCn1ncc(CN(C)C(=O)c2nc(-c3cc(C)cc(NC4CCNC4)c3)nc3ccc(COC)cc23)c1C (stereo not drawn) [Compound 479]", "TARGET OF ASSAY": "CREBBP (1084-1701) (Homo sapiens)", "CLASS ASSIGNMENT": "top range"}
{"COMPOUND": "CCn1ncc(CN(C)C(=O)c2nc(-c3ccc(NC4CCOCC4)cn3)nc3ccc(Cl)cc23)c1C [Compound 58]", "TARGET OF ASSAY": "CREBBP (1084-1701) (Homo sapiens)", "CLASS ASSIGNMENT": "center range"}
{"COMPOUND": "CCn1ncc(CN(C)C(=O)c2nc(-c3cc(C)c4c(c3)NC(=O)C4)nc3ccc(Cl)cc23)c1C [Compound 463]", "TARGET OF ASSAY": "CREBBP (1084-1701) (Homo sapiens)", "CLASS ASSIGNMENT": "center range"}
{"COMPOUND": "CCn1ncc(CN(C)C(=O)c2cc(-c3ccccc3Cl)nc3c(F)cccc23)c1C [Compound 365]", "TARGET OF ASSAY": "CREBBP (1084-1701) (Homo sapiens)", "CLASS ASSIGNMENT": "bottom range"}

Which class is correct for the following compound? CCn1ncc(CN(C)C(=O)c2cc(-c3cccc(Cl)c3)nc3ccccc23)c1C [Compound 354]
bottom range

Which class is correct for the following compound? CCn1ncc(CN(C)C(=O)c2nc(-c3ccc(OCCNC)c(Cl)c3)nc3ccc(S(C)(=O)=O)cc23)c1C [Compound 453]
center range

Which class is correct for the following compound? CCc1ncc(CN(C)C(=O)c2nc(-c3cc(C)nc(NCCNC)c3)nc3ccc(Cl)cc23)n1C [Compound 574]
top range

Which class is correct for the following compound? Cc1nc(-c2cc(C(=O)N(C)Cc3cn(C)c(CC(F)(F)F)n3)c3cc(Cl)ccc3n2)ccc1NCCN(C)C [Compound 626]
center range

Which class is correct for the following compound? CCn1ncc(CN(C)C(=O)c2nc(-c3ccc4cc[nH]c4c3)nc3ccc(Cl)cc23)c1C [Compound 67]
center range

Which class is correct for the following compound? CCn1ncc(CN(C)C(=O)c2cc(-c3ccc(NCC(O)CNC)c(C)n3)nc3ccc(Cl)cc23)c1C (stereo not drawn) [Compound 457]
top range
